Origin of the recorded values: paper PMC9482650

TARGET_OR_SYSTEM: GORASP2, Q9H8Y8
ASSAY_DETAILS: holdup assay
Parameters: key: below the threshold = too weak to quantify, mostly under pKd 3.1 to 4
CONDITIONS_USED: plain residues with an end cap or a label only (N-terminal biotin on a linker: ahx)
The following binders are shown together with reported pKd values.

{"columns": ["BINDER", "pKd"],
 "data": [
  ["RRRKRKRTYL [HPV49-L2, P36762]", 4.81],
  ["TVICWPGSLV [LNX2, Q8N448]", 4.55],
  ["HNAFLSVTTV [PDZRN4, Q6ZMN7]", 3.55]
]}
